# Tested on: carrageenan-induced paw edema in rats
# method: Anti-inflammatory activity, carrageenan-induced paw edema test
# Format: in vivo
# assaySetup: 20 mg/kg oral, 3 h after carrageenan, mean ± SD (n = 6)
measuredAttribute: Percent anti-inflammatory activity (percent inhibition of paw edema)
Reply with the number, then its unit.

Exercise: Look up and report measured Percent anti-inflammatory activity (percent inhibition of paw edema) for this entry: O=C1Nc2ccc(F)cc2C1=Nc1ccc(N=Cc2ccc([N+](=O)[O-])cc2)cc1
Solution: 39 ± 1.48 %

Exercise: State, in one line, measured Percent anti-inflammatory activity (percent inhibition of paw edema) of COc1ccc(C=Nc2ccc(N=C3C(=O)Nc4ccc(F)cc43)cc2)cc1
Solution: 41 ± 1.48 %

Exercise: In one line, give reported Percent anti-inflammatory activity (percent inhibition of paw edema) of the entry O=C(O)Cc1ccccc1Nc1c(Cl)cccc1Cl [Diclofenac, Diclofenac sodium, reference compound] .
Solution: 39 ± 1.13 %
